tested on: SK-OV-3; assay: Antitumor cytotoxicity was determined against the SK-OV-3 (human ovary adenocarcinoma) cell line; Range: 0.01 to 0.03; assay type: functional, cell-based; conditions: SK-OV-3, Female gonad
propertyMeasured: EC50 (nM)

smilesStructure: c1ccc(-c2cc(-c3ccccn3)nc(-c3ccccn3)c2)nc1
assaySystem: SK-OV-3
unitsOfMeasure: nM
measured: 30

---

test system: A549; assay: Antitumor cytotoxicity was determined against the A-549(human lung carcinoma) cell line; Range: 0.01 to 0.03; type: functional, cell-based
pEC50: −log10 of the molar value.
propertyMeasured: pEC50

smilesStructure: c1ccc(-c2cc(-c3ccccn3)nc(-c3ccccn3)c2)nc1
propertyMeasured: pEC50
measured: 7.52
